EXPERIMENT_DESCRIPTION: Acute toxicity in mice (LD50)
Assay type: in vivo
TEST_CONDITIONS: mouse, in vivo, po; mice, p.o.; death rate 7 days after administration; read-out: Mice LD50 p.o.
Structures can show the parent of a compound that is named as a salt.
ASSAY_METRIC: LD50 at 168 h (mg/kg)
Write the value in mg/kg as a bare number.

LD50 at 168 h reported for this compound `COc1ccc(CCN(C)CCCNC(=O)c2cccc3c(=O)c(C)c(-c4ccccc4)oc23)cc1OC` : 716

LD50 at 168 h reported for this compound COc1ccc(C(C#N)(CCCN(C)CC(=O)NCc2cccc3c(=O)c(C)c(-c4ccccc4)oc23)C(C)C)cc1OC.Cl.O.O (stereo not drawn) : 1280

LD50 at 168 h reported for this compound COc1ccc(C(C#N)(CCCN(C)CC(=O)N(C)Cc2cccc3c(=O)c(C)c(-c4ccccc4)oc23)C(C)C)cc1OC.Cl.O (stereo not drawn) : 1710

LD50 at 168 h reported for this compound COc1ccc(C(C#N)(CCCN(C)CCOCc2cccc3c(=O)c(C)c(-c4ccccc4)oc23)C(C)C)cc1OC.Cl.O (stereo not drawn) : 974

LD50 at 168 h reported for this compound COc1ccc(C(C#N)(CCCN(C)CCN(C)C(=O)c2cccc3c(=O)c(C)c(-c4ccccc4)oc23)C(C)C)cc1OC.Cl.O (stereo not drawn) : 346

LD50 at 168 h reported for this compound `COc1ccc(CCN(C)CCCOC(=O)c2cccc3c(=O)c(C)c(-c4ccccc4)oc23)cc1OC.Cl` : 2260

LD50 at 168 h reported for this compound COc1ccc(C(C#N)(CCCN(C)CCCNC(=O)c2cccc3c(=O)c(C)c(-c4ccccc4)oc23)C(C)C)cc1OC (stereo not drawn) [Example 11, hydrochloride hemihydrate] : 400

###

EXPERIMENT_DESCRIPTION: Stability at 37° C. and physiological pH (phosphate buffer, pH=7.4)
Assay type: physicochemical
TEST_CONDITIONS: pH 7.4 phosphate buffer, read-out: Stability at pH 7.4, % Unchanged after 3 h
Text: The stability of the other compounds of the invention was not investigated as they are known to be less subject to degradation than the esters.
Structures can show the parent of a compound that is named as a salt.
ASSAY_METRIC: remaining at 3 h

remaining at 3 h reported for this compound CCN(CCCOC(=O)c1cccc2c(=O)c(C)c(-c3ccccc3)oc12)C(C)Cc1ccc(OC)cc1.Cl (stereo not drawn) [Example 6, hydrochloride] : 99%

remaining at 3 h reported for this compound COc1ccc(CC2c3cc(OC)c(OC)cc3CCN2CCCOC(=O)c2cccc3c(=O)c(C)c(-c4ccccc4)oc23)cc1OC (stereo not drawn) [Example 7, hydrochloride] : 99%

remaining at 3 h reported for this compound COc1ccc(C(C#N)(CCCN(C)CCCOC(=O)c2cccc3c(=O)c(C)c(-c4ccccc4)oc23)C(C)C)cc1OC.Cl (stereo not drawn) [Example 4, hydrochloride] : 100%

###

Test system: rat bladder (K^+ -induced contractions)
EXPERIMENT_DESCRIPTION: Inhibition of K^+ -induced rat bladder contractions
Set-up: species or system rat (male Sprague Dawley)
TEST_CONDITIONS: 0.5 h; phasic contraction; KCl 80 mM; 30 min after drug; isolated rat bladder; read-out: IC50, inhibition of K^+ -induced rat bladder contractions, Phasic
For each entry below, report its IC50 value.
Write the value in nM as a bare number.

Case COc1ccc(C(C#N)(CCCN(C)CC(=O)N(C)Cc2cccc3c(=O)c(C)c(-c4ccccc4)oc23)C(C)C)cc1OC.Cl.O (centres unmarked) [Example 17, hydrochloride hydrate] , rat bladder (K^+ -induced contractions), IC50 recorded as 200

Case CCN(CCCOC(=O)c1cccc2c(=O)c(C)c(-c3ccccc3)oc12)C(C)Cc1ccc(OC)cc1.Cl (centres unmarked) [Example 6, hydrochloride] , rat bladder (K^+ -induced contractions), IC50 recorded as 1700

Case COc1ccc(C(C#N)(CCCN(C)CCN(C)C(=O)c2cccc3c(=O)c(C)c(-c4ccccc4)oc23)C(C)C)cc1OC.Cl.O (centres unmarked) [Example 14, hydrochloride hydrate] , rat bladder (K^+ -induced contractions), IC50 recorded as 100

Case COc1ccc(C(C#N)(CCC[N+](C)([O-])CCCOC(=O)c2cccc3c(=O)c(C)c(-c4ccccc4)oc23)C(C)C)cc1OC (centres unmarked) , rat bladder (K^+ -induced contractions), IC50 recorded as 10000
